Let's look at some compounds and their measured Z-average.
Experiment: LNP particle size, polydispersity index and charge by Zeta Sizer
Type: physicochemical
Conditions: LNP lipid:DOPE:Cholesterol:DMG-PEG 35:20:43.5:1.5, N/P about 40/1, firefly luciferase saRNA
Protocol: Cationic lipids, DOPE, Cholesterol and DMG-PEG lipid were solubilized in ethanol or DMSO at a molar ratio of 35:20:43.5:1.5 and a concentration of 100:25:20:25 μg/μL for C12-200 or 170:25:20:25 μg/μL for the comparator lipids. […] Lipid nanoparticle particle size was 50-150 nm diameter and polydispersity index (PI) of 0.1-0.4 as determined by Zeta Sizer (Malvern Panalytical, UK). The charge of the formulation was also measured by Zeta Sizer and ranged between 20 to −20 mV.
Parameter Measured: Z-average (nm)

{"Compound": "CCCCCCC(CCCC)C(=O)NCCN1CCN(CCN(CCCCOC(=O)C(CCCC)CCCCCC)CCCCOC(=O)C(CCCC)CCCCCC)CC1 (stereo not shown) [Compound 8-27]", "Parameter Measured": "Z-average", "Endpoint Value": 85.72}
{"Compound": "CCCCCCCCCCCCCCOC(=O)CCN(CCC(=O)OCCCCCCCCCCCCCC)CCN1CCN(CCN(CCC(=O)OCCCCCCCCCCCCCC)CCC(=O)OCCCCCCCCCCCCCC)CC1 [Comparator 1, reference compound]", "Parameter Measured": "Z-average", "Endpoint Value": 70.96}
{"Compound": "CCCCCCCCCCC(O)CN(CCN1CCN(CCN(CC(O)CCCCCCCCCC)CC(O)CCCCCCCCCC)CC1)CCN(CC(O)CCCCCCCCCC)CC(O)CCCCCCCCCC (stereo not shown) [Compound C12-200, reference compound]", "Parameter Measured": "Z-average", "Endpoint Value": 81.42}
{"Compound": "CCCCCCC(CCCC)C(=O)OCCCCN(CCCCOC(=O)C(CCCC)CCCCCC)CCN1CCN(CCOC(=O)C(CCCC)CCCCCC)CC1 (stereo not shown) [Compound 8-41]", "Parameter Measured": "Z-average", "Endpoint Value": 81.44}

* * *

Experiment: LNP particle size, polydispersity index and charge by Zeta Sizer
Type: physicochemical
Settings: LNP lipid:DOPE:Cholesterol:DMG-PEG 35:20:43.5:1.5, N/P about 40/1, firefly luciferase saRNA
Let's look at some molecules and their measured Zetapotential.

{"Molecule": "CCCCCCC(CCCC)C(=O)NCCN1CCN(CCN(CCCCOC(=O)C(CCCC)CCCCCC)CCCCOC(=O)C(CCCC)CCCCCC)CC1 (stereo not shown) [Compound 8-27]", "Zetapotential": "−12.65 mV"}
{"Molecule": "CCCCCCCCCCC(O)CN(CCN1CCN(CCN(CC(O)CCCCCCCCCC)CC(O)CCCCCCCCCC)CC1)CCN(CC(O)CCCCCCCCCC)CC(O)CCCCCCCCCC (stereo not shown) [Compound C12-200, reference compound]", "Zetapotential": "2.78 mV"}
{"Molecule": "CCCCCCC(CCCC)C(=O)OCCCCN(CCCCOC(=O)C(CCCC)CCCCCC)CCN1CCN(CCOC(=O)C(CCCC)CCCCCC)CC1 (stereo not shown) [Compound 8-41]", "Zetapotential": "−20.01 mV"}
{"Molecule": "CCCCCCCCCCCCCCOC(=O)CCN(CCC(=O)OCCCCCCCCCCCCCC)CCN1CCN(CCN(CCC(=O)OCCCCCCCCCCCCCC)CCC(=O)OCCCCCCCCCCCCCC)CC1 [Comparator 1, reference compound]", "Zetapotential": "9.07 mV"}

* * *

Test: Body weight of mice after injection of LNP-formulated luciferase saRNA
Assay type: in vivo
Settings: Day 20, intramuscular, 1 μg luciferase saRNA in LNP
Let's look at some compounds and their measured Weight.

{"Compound": "CCCCCCCCCCC(O)CN(CCN1CCN(CCN(CC(O)CCCCCCCCCC)CC(O)CCCCCCCCCC)CC1)CCN(CC(O)CCCCCCCCCC)CC(O)CCCCCCCCCC (stereo not shown) [Compound C12-200, reference compound]", "Weight": "31.23 g"}
{"Compound": "CCCCCCCCCCCCCCOC(=O)CCN(CCC(=O)OCCCCCCCCCCCCCC)CCN1CCN(CCN(CCC(=O)OCCCCCCCCCCCCCC)CCC(=O)OCCCCCCCCCCCCCC)CC1 [Comparator 1, reference compound]", "Weight": "30.11 g"}
{"Compound": "CCCCCCC(CCCC)C(=O)NCCN1CCN(CCN(CCCCOC(=O)C(CCCC)CCCCCC)CCCCOC(=O)C(CCCC)CCCCCC)CC1 (stereo not shown)", "Weight": "30.57 g"}
{"Compound": "CCCCCCC(CCCC)C(=O)OCCCCN(CCCCOC(=O)C(CCCC)CCCCCC)CCN1CCN(CCOC(=O)C(CCCC)CCCCCC)CC1 (stereo not shown)", "Weight": "31.19 g"}

* * *

Assay: Body weight of mice after injection of LNP-formulated luciferase saRNA
Assay type: in vivo
Conditions: Day 10, intramuscular, 1 μg luciferase saRNA in LNP

{"Compound": "CCCCCCC(CCCC)C(=O)OCCCCN(CCCCOC(=O)C(CCCC)CCCCCC)CCN1CCN(CCOC(=O)C(CCCC)CCCCCC)CC1 (stereo not shown)", "Weight / g": 29.24}
{"Compound": "CCCCCCC(CCCC)C(=O)NCCN1CCN(CCN(CCCCOC(=O)C(CCCC)CCCCCC)CCCCOC(=O)C(CCCC)CCCCCC)CC1 (stereo not shown)", "Weight / g": 28.67}
{"Compound": "CCCCCCCCCCC(O)CN(CCN1CCN(CCN(CC(O)CCCCCCCCCC)CC(O)CCCCCCCCCC)CC1)CCN(CC(O)CCCCCCCCCC)CC(O)CCCCCCCCCC (stereo not shown) [Compound C12-200, reference compound]", "Weight / g": 29.23}
{"Compound": "CCCCCCCCCCCCCCOC(=O)CCN(CCC(=O)OCCCCCCCCCCCCCC)CCN1CCN(CCN(CCC(=O)OCCCCCCCCCCCCCC)CCC(=O)OCCCCCCCCCCCCCC)CC1 [Comparator 1, reference compound]", "Weight / g": 27.17}
